Tested on: normal primary NK cells, pool 1 (3 donors), resting (IL-2 0 ng/mL)
Assay: drug sensitivity score (DSS) (DSS units); higher = more sensitive; extreme values may be limits of the assay
Conditions: 72 h
Items are presented alongside their recorded drug sensitivity score.
Response field accepts a number only; no unit should be typed.

Molecule	Experimental System	Recorded Result
CC[C@]1(O)C[C@H]2CN(CCc3c([nH]c4ccccc34)[C@@](C(=O)OC)(c3cc4c(cc3OC)N(C=O)[C@H]3[C@@](O)(C(=O)OC)[C@H](OC(C)=O)[C@]5(CC)C=CCN6CC[C@]43[C@@H]65)C2)C1 [Vincristine] (max concentration tested 1000 nM)	normal primary NK cells, pool 1 (3 donors), resting (IL-2 0 ng/mL)	6.94
O=S(=O)(c1cccc2cnccc12)N1CCCNCC1 [Fasudil] (max concentration tested 50000 nM)	normal primary NK cells, pool 1 (3 donors), resting (IL-2 0 ng/mL)	0.88
O=P1(NCCCl)OCCCN1CCCl (stereo unspecified) [Ifosfamide] (max concentration tested 10000 nM)	normal primary NK cells, pool 1 (3 donors), resting (IL-2 0 ng/mL)	0.02
CCCc1cc(C)[nH]c(=O)c1CNC(=O)c1cc(-c2ccnc(N3CCN(C)CC3)c2)cc2c1cnn2C(C)C [GSK343] (max concentration tested 10000 nM)	normal primary NK cells, pool 1 (3 donors), resting (IL-2 0 ng/mL)	6.86
O=C(CCCCCCC(=O)Nc1ccccc1)NO [Vorinostat] (max concentration tested 10000 nM)	normal primary NK cells, pool 1 (3 donors), resting (IL-2 0 ng/mL)	14.8

Input line: For the molecule CCN(CC)CCNC(=O)c1c(C)[nH]c(/C=C2\C(=O)Nc3ccc(F)cc32)c1C [Sunitinib] (max concentration tested 1000 nM) , give its reported drug sensitivity score.
Output line: 0.08
